Tested on: VchCAST RNA-guided transposition machinery (E. coli BL21(DE3) host, lacZ target)
Experiment: relative integration efficiency (T-LR orientation) vs wild-type transposon end (log2 (normalized fold change)); transposon end mutated: right end (5 bp flank + 75 bp right end); higher = more efficient transposition
Response key: Criterion met means relative integration efficiency (log2) >= -1; Criterion not met means relative integration efficiency (log2) < -1.

Previously resolved entries follow.
# seq, discrete.label
measured = [
    ("ACATTTGTTGATACAACCATATATTGATATCTCCAACCATAAAATGATAATTATCACACCCATAAATTGATATTGCCTCTGATCATAGTCAGACCAACATTGCTACGACCCGTATTCGCACCGACAC", "Criterion met"),
    ("ACATTTGTTGATACAACCATAAAATGATAATTAATAATTATTTATAATCAGCAACTTCACCCATAAATTGATAATTATCACACCCATAAATTGATATTGCCTCTGATCATAGTCAGACCAACATTGC", "Criterion not met"),
    ("ACATTTGTTGATACAACCATAAAATGAGAATTACACCCATAAATTGAGAATTATCACACCCATAAATTGAGATTGCCTCTGATCATAGTCAGACCAACATTGCTACGACCCGTATTCGCACCGACAC", "Criterion met"),
    ("ACATTTGTTGATACAACCATACCATGATAATTACACCCATAAATTGATAATTATCACACCCATAAATTGATATTGCCTCTGATCATAGTCAGACCAACATTGCTACGACCCGTATTCGCACCGACAC", "Criterion not met"),
    ("ACATTTGTTGATACAACCATAAAATCATAATTACACCCATAAATTGATAATTATCACACCCCATTTAACTATAACGCTCTGATCATAGTCAGACCAACATTGCTACGACCCGTATTCGCACCGACAC", "Criterion met"),
]

Query: Quick check, relative integration efficiency (log2) >= -1? ACATTTGTTGATACAACCATAAAATGATACTTACACCCATAAATTGATACTTATCACACCCATAAATTGATAGTGCCTCTGATCATAGTCAGACCAACATTGCTACGACCCGTATTCGCACCGACAC
Reply: Criterion met

Query: Determine whether this sequence has relative integration efficiency (log2) no lower than -1: ACATTTGTTGATACAACCATAAAATGATAATTACACCCATTAATTGATAATGATGACACCGAATTTAACTATAACGCTCTGATCATAGTCAGACCAACATTGCTACGACCCGTATTCGCACCGACAC
Reply: Criterion met

Query: Exam item: decide whether the reported relative integration efficiency (log2) for ACATTTGTTGATACCACCATCAAATGGTAATTCCACCCCTACATTGATAATTATCACACCCAATTTAACTATAACGCTCTGATCATAGTCAGACCAACATTGCTACGACCCGTATTCGCACCGACAC is at least -1.
Reply: Criterion not met

Query: Is relative integration efficiency (log2) for ACATTTCTCGATACAACCATAAAATGATAATTACACCCATAAATGGATCATTATCACACCCAATTTAACTATAACGCTCTGATCATAGTCAGACCAACATTGCTACGACCCGTATTCGCACCGACAC at or above -1?
Reply: Criterion met

====

Test system: VchCAST RNA-guided transposition machinery (E. coli BL21(DE3) host, lacZ target)
Experiment: relative integration efficiency (T-LR orientation) vs wild-type transposon end (log2 (normalized fold change)); transposon end mutated: right end (5 bp flank + 75 bp right end); higher = more efficient transposition
We begin with a simple list: items and their reported relative integration efficiency (log2).

# seq, meas.value
data = [
    ("ACATTTGTTGATACAACCATAAAATGATAATTACACCCATCAATTGATAATTATCCCACCCCATTTAACTATAACGCTCTGATCATAGTCAGACCAACATTGCTACGACCCGTATTCGCACCGACAC", 1.52),
    ("ACATTTGTTGATACAACCATCAAATGATAATTACACCCCTAAATTGATAATTATCACACCCAATTTAACTATAACGCTCTGATCATAGTCAGACCAACATTGCTACGACCCGTATTCGCACCGACAC", -0.622),
    ("ACATTTGTTGATACAACCATAAAATCATAATTACACCCATCAATTGATAATTATCCCACCCAATTTAACTATAACGCTCTGATCATAGTCAGACCAACATTGCTACGACCCGTATTCGCACCGACAC", -0.195),
    ("ACATTTGTTCATACAACCATAAAACGATAATTACACCCATAAATTCATAATTATCACACCCAATTTAACTATAACGCTCTGATCATAGTCAGACCAACATTGCTACGACCCGTATTCGCACCGACAC", -0.844),
    ("ACATTTGTTGATACAACCATAAAATGATAATTCACCCATAAATTGATAATTATCACACCCCAATTTAACTATAACGCTCTGATCATAGTCAGACCAACATTGCTACGACCCGTATTCGCACCGACAC", 1.7),
]

Query: Give the reported value of relative integration efficiency (log2) for this record: ACATTTGTTGATACAACCATAAGTTGATATTTTCAACCATATATTGATATCTCTCACACCCATAAATTGATATTGCCTCTGATCATAGTCAGACCAACATTGCTACGACCCGTATTCGCACCGACAC
Reply: -0.117

Query: Quote relative integration efficiency (log2) reported for ACATTTGTTGATACAACCATAAAATGATAATAACACCCATAAAATGATAATTATCACACCCAATTTAACTATAACGCTCTGATCATAGTCAGACCAACATTGCTACGACCCGTATTCGCACCGACAC please.
Reply: 3.21

====

System: VchCAST RNA-guided transposition machinery (E. coli BL21(DE3) host, lacZ target)
Experiment: relative integration efficiency (T-RL orientation) vs wild-type transposon end (log2 (normalized fold change)); transposon end mutated: right end (5 bp flank + 75 bp right end); higher = more efficient transposition
Reported values of relative integration efficiency (log2) for individual entries

For orientation, consider the following solved cases.
# seq, relative integration efficiency (log2)
data = [
    ("ACATTTGTTCATACAACCATAAAATGATAATTACACCCATAAATGGATAATTATCACACCCAATTTAACTATAACGCTCTGATCATAGTCAGACCAACATTGCTACGACCCGTATTCGCACCGACAC", -1.57),
    ("ACATTTGTTGATACAACCATATAATGATAATAACACCGATAAAATGATAATTATCACACCCAATTTAACTATAACGCTCTGATCATAGTCAGACCAACATTGCTACGACCCGTATTCGCACCGACAC", -1.46),
]

Query: Write down relative integration efficiency (log2) measured for item ACATTTGTTGATACAACCATAAAATGATAATTACACCCATAAATTGATAATTATCACACCCATAAATTGATATTGCCTCTTCATGTGAGCCCAGGCAGTAAGTTTACGACATTTTCAGCACCGACAC
Reply: -1.91

====

System: VchCAST RNA-guided transposition machinery (E. coli BL21(DE3) host, lacZ target)
Test: relative integration efficiency (T-RL orientation) vs wild-type transposon end (log2 (normalized fold change)); transposon end mutated: left end; higher = more efficient transposition
endpoint.name: relative integration efficiency (log2)
Just the number, please.

Please review the entries below; each comes with its answer.
# seq, relative integration efficiency (log2)
measured = [
    ("AATGTTGTTGATGCAACCATAAAGTGATATTTAATAATTATTTATAATCAGCAACTTAACCACAAAACAACCATATATTGATATCTCACAAAACAACCATAAGTTGAGCGGGGGTGTCCGATCTGATTTCAGCAAAACTACTGCAGTAAGAA", -1.32),
    ("AATGTTGTTGATGTGTTCAACCATAAAGTGATATTTAATAATTATTTATAATCAGCAACTTAACCACAAAACAACCATATATTGATATCTCACAAAACAACCATAAGTTGATATTTTTGTGAATCGAGTATTTCAGCAAAACTACTGCAGTA", -6.33),
    ("AATGTTGTTGATGCAACCATAAAGTGATATTTAATAATTATTTATAATCAGCAACTTAACCACAAAACAACCATATATTGATATCTCACAACCACCAACGCCTGGTCGCGGGGGTGTCCGATCTGATTTCAGCAAAACTACTGCAGTAAGAA", -2.63),
]

Here is another sequence to look at.
Query: Output measured relative integration efficiency (log2) for this item: AATGTTGTTGATGCAACCATAAAGTGATATTTAATAATTATTTATAATCAGCAACTTAACCACCCCCACCAACGCGCGGTCGCGAGACACCCCACCAACGCCTGGTCGCGGGGGTGTCCGATCTGATTTCAGCAAAACTACTGCAGTAAGAA
Reply: -6.56

Cited source: the supplement of paper PMC10201428
